Would you mind telling me the reported ADCC cytotoxic activity (51Cr release) on HT-1376 of each entry?
Molecular target: T1, CAPRIN-1 protein expressed on the membrane surface of human cancer cells (human, UniProt Q14444 2-709)
T1 sequence (looked up): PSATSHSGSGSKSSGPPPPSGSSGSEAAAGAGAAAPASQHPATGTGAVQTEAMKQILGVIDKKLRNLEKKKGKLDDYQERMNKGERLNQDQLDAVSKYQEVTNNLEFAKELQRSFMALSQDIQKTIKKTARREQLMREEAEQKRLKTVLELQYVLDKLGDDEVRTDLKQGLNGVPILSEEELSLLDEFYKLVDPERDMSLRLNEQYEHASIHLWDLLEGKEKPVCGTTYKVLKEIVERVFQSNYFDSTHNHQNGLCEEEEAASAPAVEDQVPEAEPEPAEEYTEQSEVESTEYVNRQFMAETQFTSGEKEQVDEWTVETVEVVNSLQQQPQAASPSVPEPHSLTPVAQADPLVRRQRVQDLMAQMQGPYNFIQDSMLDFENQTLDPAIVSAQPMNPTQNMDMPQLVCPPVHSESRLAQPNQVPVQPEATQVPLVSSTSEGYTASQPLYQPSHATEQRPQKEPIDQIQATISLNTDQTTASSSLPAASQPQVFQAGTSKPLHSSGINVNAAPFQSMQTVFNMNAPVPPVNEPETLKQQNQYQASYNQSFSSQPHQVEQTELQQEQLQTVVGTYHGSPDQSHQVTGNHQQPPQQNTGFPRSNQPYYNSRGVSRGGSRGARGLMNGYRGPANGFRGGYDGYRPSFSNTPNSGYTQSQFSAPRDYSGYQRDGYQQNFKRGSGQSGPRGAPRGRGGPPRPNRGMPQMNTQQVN
Assay: cell-based or functional assay

Binder	Reported
humanized antibody #7 (antibody, V domains shown) VH: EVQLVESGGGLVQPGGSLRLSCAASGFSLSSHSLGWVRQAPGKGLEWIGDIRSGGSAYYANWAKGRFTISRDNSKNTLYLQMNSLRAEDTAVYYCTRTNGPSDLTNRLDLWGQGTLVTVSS VL: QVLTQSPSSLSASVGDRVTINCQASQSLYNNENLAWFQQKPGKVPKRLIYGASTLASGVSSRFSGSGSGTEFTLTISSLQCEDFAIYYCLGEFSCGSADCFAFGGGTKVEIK	≥ 45%

Query: Give ADCC cytotoxic activity (51Cr release) on HT-1376 for the following binder: humanized antibody #3 (antibody, V domains shown) VH: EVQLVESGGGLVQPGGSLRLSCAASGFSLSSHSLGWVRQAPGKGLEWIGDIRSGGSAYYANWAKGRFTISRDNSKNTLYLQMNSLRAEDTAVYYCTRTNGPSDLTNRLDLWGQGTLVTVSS VL: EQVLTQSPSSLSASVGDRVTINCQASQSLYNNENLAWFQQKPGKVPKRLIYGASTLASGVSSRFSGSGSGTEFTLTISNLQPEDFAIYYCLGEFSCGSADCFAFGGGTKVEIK
Result: ≥ 40%
